Please go through the items and note down their pEC50.
molecular target: STING in THP1-Dual KI-hSTING-R232 cells (Homo sapiens, UniProt Q86WV6, H232R); test: Human THP1 reporter cell assay (IRF luciferase reporter); details: 24 hours incubation
Sequence (Q86WV6 whole entry H232R): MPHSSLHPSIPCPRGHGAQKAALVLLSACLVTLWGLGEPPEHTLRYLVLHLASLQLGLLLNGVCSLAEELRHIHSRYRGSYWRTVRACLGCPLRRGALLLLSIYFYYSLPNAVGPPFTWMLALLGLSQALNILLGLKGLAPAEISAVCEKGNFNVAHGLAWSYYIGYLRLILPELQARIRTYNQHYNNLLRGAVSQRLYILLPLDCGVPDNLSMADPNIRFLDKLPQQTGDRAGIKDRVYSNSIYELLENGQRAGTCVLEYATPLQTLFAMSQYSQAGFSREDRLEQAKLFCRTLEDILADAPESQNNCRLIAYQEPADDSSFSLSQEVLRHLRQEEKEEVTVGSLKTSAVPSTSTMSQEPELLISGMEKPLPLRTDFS
Answers are plain numbers, as −log10 of the molar value.

Example results:
| SUBSTANCE SMILES | pEC50 |
| --- | --- |
| CCn1nc(C)cc1C(=O)Nc1nc2cc(C(N)=O)cc(OCCCN3CCOCC3)c2n1CCC[C@H]1COc2cc(C(N)=O)cc3nc(NC(=O)c4cc(C)nn4CC)n1c23 | 7.00 |
| C=CC[C@H]1CN(CCCOC)c2cc(C(N)=O)cc3nc(NC(=O)c4cc(C)nn4CC)n1c23 | 5.82 |
| C/C=C\C[C@H]1COc2cc(C(N)=O)cc3nc(NC(=O)c4cc(C)nn4CC)n1c23 | 5.89 |
| C=CC[C@H]1CN(C)c2cc(C(N)=O)cc3nc(NC(=O)c4cc(C)nn4CC)n1c23 | 5.62 |

Let us move to another entry and its pEC50.
With STING in THP1-Dual KI-hSTING-R232 cells (Homo sapiens, UniProt Q86WV6, H232R) as the test system, provide measured pEC50 for this compound: "CCC=CC[C@H]1COc2cc(C(N)=O)cc3nc(NC(=O)c4cc(C)nn4CC)n1c23"
5.59
